Values were extracted from patent US20230321062A1.

Target: CYP2B6 (Homo sapiens)
Sequence (P20813 whole entry): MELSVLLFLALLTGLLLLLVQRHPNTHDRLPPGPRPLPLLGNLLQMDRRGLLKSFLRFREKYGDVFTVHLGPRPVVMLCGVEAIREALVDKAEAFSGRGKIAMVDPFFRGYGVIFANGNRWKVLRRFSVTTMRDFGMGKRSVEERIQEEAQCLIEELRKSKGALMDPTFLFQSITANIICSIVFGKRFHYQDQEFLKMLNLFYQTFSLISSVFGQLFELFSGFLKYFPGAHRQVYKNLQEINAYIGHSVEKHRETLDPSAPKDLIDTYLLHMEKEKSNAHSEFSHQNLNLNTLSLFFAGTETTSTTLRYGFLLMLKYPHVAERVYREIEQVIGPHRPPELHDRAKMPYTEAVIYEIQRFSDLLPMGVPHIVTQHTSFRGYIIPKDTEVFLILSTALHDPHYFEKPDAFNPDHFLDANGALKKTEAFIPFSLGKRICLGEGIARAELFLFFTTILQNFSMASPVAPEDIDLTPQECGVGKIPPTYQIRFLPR
Experiment: direct CYP inhibition
Format: in vitro ADME
Conditions: human; highest concentration evaluated (20 μM)
property.measured: inhibition at 20 µM

Query block: Reported inhibition at 20 µM for COCCNCc1ccc(-c2cc3nccc(Oc4ccc(NC(=O)C5(C(=O)Nc6ccc(F)cc6)CC5)cc4F)c3s2)nc1 [sitravatinib] : what is it?
Result block: ~50%

====

Assay: pharmacokinetics after single dose of sitravatinib free base capsules
Format: in vivo
Conditions: human, in vivo; oral administration; read-out: mean elimination half life
property.measured: half-life

Query block: Reported half-life for COCCNCc1ccc(-c2cc3nccc(Oc4ccc(NC(=O)C5(C(=O)Nc6ccc(F)cc6)CC5)cc4F)c3s2)nc1 [sitravatinib] : what is it?
Result block: 42 to 58 h

====

Assay: in vivo
Parameters: species or system dogs
Conditions: dog, 4 mg/kg
property.measured: concentration at 6 hr (ng/mL)
Report the figure in ng/mL without appending any unit label.

Query block: Reported concentration at 6 hr for COCCNCc1ccc(-c2cc3nccc(Oc4ccc(NC(=O)C5(C(=O)Nc6ccc(F)cc6)CC5)cc4F)c3s2)nc1 : what is it?
Result block: 72

====

Target: P-gp (Homo sapiens)
Construct: In a bidirectional permeability study with Caco-2 cell lines; endogenous in cells
Sequence (P08183 whole entry): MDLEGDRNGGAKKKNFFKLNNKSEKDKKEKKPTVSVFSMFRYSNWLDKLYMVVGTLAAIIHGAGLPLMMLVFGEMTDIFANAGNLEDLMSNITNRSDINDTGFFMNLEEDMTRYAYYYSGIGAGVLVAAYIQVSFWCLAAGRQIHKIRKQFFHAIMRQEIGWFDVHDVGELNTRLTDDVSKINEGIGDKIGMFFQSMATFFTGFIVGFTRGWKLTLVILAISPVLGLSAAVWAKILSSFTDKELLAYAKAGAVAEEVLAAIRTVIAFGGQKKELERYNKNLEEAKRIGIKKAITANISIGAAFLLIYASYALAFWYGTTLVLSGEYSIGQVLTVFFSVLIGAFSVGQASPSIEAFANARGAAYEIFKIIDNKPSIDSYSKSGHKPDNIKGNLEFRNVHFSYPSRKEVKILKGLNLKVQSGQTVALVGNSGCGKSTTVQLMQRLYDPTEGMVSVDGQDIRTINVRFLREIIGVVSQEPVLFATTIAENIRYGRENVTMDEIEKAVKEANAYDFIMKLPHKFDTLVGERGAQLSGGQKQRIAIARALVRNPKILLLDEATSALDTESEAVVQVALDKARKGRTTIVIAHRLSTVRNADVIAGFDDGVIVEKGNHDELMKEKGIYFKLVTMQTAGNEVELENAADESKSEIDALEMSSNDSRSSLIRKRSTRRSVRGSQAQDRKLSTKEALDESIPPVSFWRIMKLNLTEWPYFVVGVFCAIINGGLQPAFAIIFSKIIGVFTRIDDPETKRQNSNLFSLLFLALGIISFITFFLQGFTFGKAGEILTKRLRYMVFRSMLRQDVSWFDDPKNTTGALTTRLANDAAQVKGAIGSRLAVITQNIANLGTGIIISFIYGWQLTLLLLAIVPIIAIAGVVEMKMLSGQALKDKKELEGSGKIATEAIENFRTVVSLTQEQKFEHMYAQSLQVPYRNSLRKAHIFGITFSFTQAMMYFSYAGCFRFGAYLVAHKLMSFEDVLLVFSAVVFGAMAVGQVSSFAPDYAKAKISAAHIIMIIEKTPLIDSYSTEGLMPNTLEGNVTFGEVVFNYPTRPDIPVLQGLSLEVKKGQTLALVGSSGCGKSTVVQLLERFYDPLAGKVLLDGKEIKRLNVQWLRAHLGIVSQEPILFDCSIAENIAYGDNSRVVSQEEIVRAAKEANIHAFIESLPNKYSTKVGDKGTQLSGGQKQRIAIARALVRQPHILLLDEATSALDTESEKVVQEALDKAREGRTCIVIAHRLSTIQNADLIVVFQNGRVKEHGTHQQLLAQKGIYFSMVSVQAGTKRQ
property.measured: IC50 (µM)
Report the figure in µM without appending any unit label.

Query block: Reported IC50 for COCCNCc1ccc(-c2cc3nccc(Oc4ccc(NC(=O)C5(C(=O)Nc6ccc(F)cc6)CC5)cc4F)c3s2)nc1 : what is it?
Result block: 0.838

====

Target: CYP2D6 (Homo sapiens)
Sequence (P10635 whole entry): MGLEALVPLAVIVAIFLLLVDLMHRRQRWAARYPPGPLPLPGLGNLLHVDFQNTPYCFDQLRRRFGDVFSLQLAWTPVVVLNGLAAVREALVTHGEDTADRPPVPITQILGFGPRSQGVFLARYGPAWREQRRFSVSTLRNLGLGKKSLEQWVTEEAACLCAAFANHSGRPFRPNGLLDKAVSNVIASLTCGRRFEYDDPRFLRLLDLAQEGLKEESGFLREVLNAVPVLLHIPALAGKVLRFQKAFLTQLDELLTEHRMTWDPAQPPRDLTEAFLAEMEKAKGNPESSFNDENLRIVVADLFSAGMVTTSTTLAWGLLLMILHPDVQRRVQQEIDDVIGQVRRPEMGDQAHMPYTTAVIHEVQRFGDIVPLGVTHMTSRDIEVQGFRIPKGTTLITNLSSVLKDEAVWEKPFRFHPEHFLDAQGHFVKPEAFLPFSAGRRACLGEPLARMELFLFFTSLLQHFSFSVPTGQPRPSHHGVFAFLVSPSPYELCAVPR
Test: direct CYP inhibition
Assay type: in vitro ADME
property.measured: IC50 (nM)
Report the figure in nM without appending any unit label.

Query block: Reported IC50 for COCCNCc1ccc(-c2cc3nccc(Oc4ccc(NC(=O)C5(C(=O)Nc6ccc(F)cc6)CC5)cc4F)c3s2)nc1 : what is it?
Result block: 1900

====

Biological target: BCRP (Homo sapiens)
Construct: In a bidirectional permeability study with Caco-2 cell lines; endogenous in cells
Sequence (Q9UNQ0 1-655): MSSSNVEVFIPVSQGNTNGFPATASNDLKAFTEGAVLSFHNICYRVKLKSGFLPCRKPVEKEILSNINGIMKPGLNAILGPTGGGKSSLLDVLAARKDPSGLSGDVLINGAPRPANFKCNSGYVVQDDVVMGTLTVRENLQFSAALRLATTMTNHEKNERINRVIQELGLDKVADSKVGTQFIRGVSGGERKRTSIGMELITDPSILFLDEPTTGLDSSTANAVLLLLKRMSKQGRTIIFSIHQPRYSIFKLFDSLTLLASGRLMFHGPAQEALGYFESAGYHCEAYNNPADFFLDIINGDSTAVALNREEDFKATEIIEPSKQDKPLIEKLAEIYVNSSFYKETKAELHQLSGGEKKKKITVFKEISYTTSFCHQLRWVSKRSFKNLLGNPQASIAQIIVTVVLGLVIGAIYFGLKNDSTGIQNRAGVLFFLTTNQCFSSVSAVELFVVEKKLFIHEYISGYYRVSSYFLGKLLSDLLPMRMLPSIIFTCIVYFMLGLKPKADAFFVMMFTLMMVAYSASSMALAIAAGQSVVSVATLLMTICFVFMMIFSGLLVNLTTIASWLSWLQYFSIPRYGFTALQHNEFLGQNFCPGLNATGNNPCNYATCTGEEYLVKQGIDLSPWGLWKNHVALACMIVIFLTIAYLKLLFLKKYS
property.measured: IC50 (µM)
Report the figure in µM without appending any unit label.

Query block: Reported IC50 for COCCNCc1ccc(-c2cc3nccc(Oc4ccc(NC(=O)C5(C(=O)Nc6ccc(F)cc6)CC5)cc4F)c3s2)nc1 : what is it?
Result block: 1.51
